Assay: folding enthalpy; higher = less favourable; fluorescence melt of hairpins on a sequencing array, two-state fit
Settings: sodium 0.088 M
// reported folding enthalpy per item
endpointLabel: folding enthalpy (kcal/mol)

[[record]]
sequencecode = "GATCCCACCAGGGATC ((((((....))))))"
endpointlabel = "folding enthalpy"
readoutvalue = -41.8

[[record]]
sequencecode = "GACGGACGAAAGTCAGTC (((.(((....))).)))"
endpointlabel = "folding enthalpy"
readoutvalue = -37.5

[[record]]
sequencecode = "GCGACGCATCGC ((((....))))"
endpointlabel = "folding enthalpy"
readoutvalue = -16

[[record]]
sequencecode = "GATCCCCTCGGGGATC ((((((....))))))"
endpointlabel = "folding enthalpy"
readoutvalue = -32.5

[[record]]
sequencecode = "GGTCGTGAAAACGACC ((((((....))))))"
endpointlabel = "folding enthalpy"
readoutvalue = -34.3

[[record]]
sequencecode = "GCATCGCGAAAGCATTGC (((..((....))..)))"
endpointlabel = "folding enthalpy"
readoutvalue = -13.1

[[record]]
sequencecode = "CGGATCGGAAACGAGCCG (((.(((....))).)))"
endpointlabel = "folding enthalpy"
readoutvalue = -47.4

[[record]]
sequencecode = "GCAGCCGGAAACAGCTGC (((((.(....).)))))"
endpointlabel = "folding enthalpy"
readoutvalue = -40.9

[[record]]
sequencecode = "GATCGTCCGACGATC ((((((...))))))"
endpointlabel = "folding enthalpy"
readoutvalue = -40.9

[[record]]
sequencecode = "CGCGGAGAGTCCGCG ((((((...))))))"
endpointlabel = "folding enthalpy"
readoutvalue = -27

[[record]]
sequencecode = "GAGGGCGGAAACGCCCCC (.(((((....))))).)"
endpointlabel = "folding enthalpy"
readoutvalue = -5.82

[[record]]
sequencecode = "GTTACTCGAAAGAGCAAC (((.(((....))).)))"
endpointlabel = "folding enthalpy"
readoutvalue = -27.5

[[record]]
sequencecode = "GGTTCAGGAAACCGAACC (((((.(....).)))))"
endpointlabel = "folding enthalpy"
readoutvalue = -26.5

[[record]]
sequencecode = "GCTAACGAAAGTTTGAGC ((((((....)))..)))"
endpointlabel = "folding enthalpy"
readoutvalue = -15.6

[[record]]
sequencecode = "GGGTCGGGAAACCGACTC (.(((((....))))).)"
endpointlabel = "folding enthalpy"
readoutvalue = -14.4

[[record]]
sequencecode = "GCCGAGGGAAACTTCGGC (((((.(....).)))))"
endpointlabel = "folding enthalpy"
readoutvalue = -46.2

[[record]]
sequencecode = "GATCATACAAATGATC ((((((....))))))"
endpointlabel = "folding enthalpy"
readoutvalue = -33.6

[[record]]
sequencecode = "GCACAGCGAAAGCTTAGC ((..(((....)))..))"
endpointlabel = "folding enthalpy"
readoutvalue = -10.9

[[record]]
sequencecode = "GTTATGGAAACATAAC ((((((....))))))"
endpointlabel = "folding enthalpy"
readoutvalue = -30.3

[[record]]
sequencecode = "GCGGAGCGAAAGCTAGGC ((..(((....)))..))"
endpointlabel = "folding enthalpy"
readoutvalue = -9.5

[[record]]
sequencecode = "GGCCGAGCGAAAGCTGCC (((..(((....))))))"
endpointlabel = "folding enthalpy"
readoutvalue = -21.4

[[record]]
sequencecode = "GCTGGAGGAAACTCTAGC (((.(((....))).)))"
endpointlabel = "folding enthalpy"
readoutvalue = -40.4

[[record]]
sequencecode = "GATCGGTAAACCGATC ((((((....))))))"
endpointlabel = "folding enthalpy"
readoutvalue = -40.7

[[record]]
sequencecode = "GCATGGCGAAAGCTGTGC (((..((....))..)))"
endpointlabel = "folding enthalpy"
readoutvalue = -31.6

[[record]]
sequencecode = "GTTTAACGAAAGTTAAC (((.(((....))))))"
endpointlabel = "folding enthalpy"
readoutvalue = -14.6

[[record]]
sequencecode = "GATCTTGATCAAGATC ((((((....))))))"
endpointlabel = "folding enthalpy"
readoutvalue = -40.9

[[record]]
sequencecode = "GCTCACGAAAGTGGGAGC ((((((....)))..)))"
endpointlabel = "folding enthalpy"
readoutvalue = -20.1

[[record]]
sequencecode = "GATCAATGGTTTGATC ((((((....))))))"
endpointlabel = "folding enthalpy"
readoutvalue = -31.9

[[record]]
sequencecode = "GTAGTCGGAAACGACTGC (.(((((....))))).)"
endpointlabel = "folding enthalpy"
readoutvalue = -29

[[record]]
sequencecode = "GTGGGCGCGAAAGCGCAC (((..(((....))))))"
endpointlabel = "folding enthalpy"
readoutvalue = -16.4

[[record]]
sequencecode = "GAAAGAGCGAAAGCTTTC (((..(((....))))))"
endpointlabel = "folding enthalpy"
readoutvalue = -13.8

[[record]]
sequencecode = "GATCGCCCCCGCGATC ((((((....))))))"
endpointlabel = "folding enthalpy"
readoutvalue = -37.6

[[record]]
sequencecode = "GATCCCCACCGGGATC ((((((....))))))"
endpointlabel = "folding enthalpy"
readoutvalue = -34.7

[[record]]
sequencecode = "GATACCGAAAGGTAATC ((((((....))).)))"
endpointlabel = "folding enthalpy"
readoutvalue = -18.9

[[record]]
sequencecode = "GATCTTCTAGAAGATC ((((((....))))))"
endpointlabel = "folding enthalpy"
readoutvalue = -40.9

[[record]]
sequencecode = "GGTCCGCCGAAAGGCACC (((..(((....))))))"
endpointlabel = "folding enthalpy"
readoutvalue = -8.71

[[record]]
sequencecode = "GCGGCTAACCGC ((((....))))"
endpointlabel = "folding enthalpy"
readoutvalue = -26.2

[[record]]
sequencecode = "GCACATGAAAATGTGC ((((((....))))))"
endpointlabel = "folding enthalpy"
readoutvalue = -39.8

[[record]]
sequencecode = "GTCTCACGAAAGTGCGAC (((.(((....))).)))"
endpointlabel = "folding enthalpy"
readoutvalue = -38.7

[[record]]
sequencecode = "GATCCTGTGGAGGATC ((((((....))))))"
endpointlabel = "folding enthalpy"
readoutvalue = -31.8

[[record]]
sequencecode = "GAGGTGCCGAAAGGCCTC (((..(((....))))))"
endpointlabel = "folding enthalpy"
readoutvalue = -10.8

[[record]]
sequencecode = "GGATGTCGAAAGACTTCC (((.(((....))).)))"
endpointlabel = "folding enthalpy"
readoutvalue = -39.6

[[record]]
sequencecode = "GTTTTACGAAAGTACAAC (((.(((....))).)))"
endpointlabel = "folding enthalpy"
readoutvalue = -25.8

[[record]]
sequencecode = "GCGAAGCGAAAGCCTAGC ((.(.((....)).).))"
endpointlabel = "folding enthalpy"
readoutvalue = -7.6

[[record]]
sequencecode = "GCAGTAGGAAACTGTTGC (((..((....))..)))"
endpointlabel = "folding enthalpy"
readoutvalue = -18.3

[[record]]
sequencecode = "GATCAGGAACCTGATC ((((((....))))))"
endpointlabel = "folding enthalpy"
readoutvalue = -35

[[record]]
sequencecode = "GCGATCTTTCGC ((((....))))"
endpointlabel = "folding enthalpy"
readoutvalue = -27.5

[[record]]
sequencecode = "GATCTCATTCGAGATC ((((((....))))))"
endpointlabel = "folding enthalpy"
readoutvalue = -39.4

[[record]]
sequencecode = "GTATACCCGAAAGGGTAC (((..(((....))))))"
endpointlabel = "folding enthalpy"
readoutvalue = -8.81

[[record]]
sequencecode = "GGCGCTGGAAACAGTGCC (((.(((....))).)))"
endpointlabel = "folding enthalpy"
readoutvalue = -49.2

[[record]]
sequencecode = "GATCCAATTGTGGATC ((((((....))))))"
endpointlabel = "folding enthalpy"
readoutvalue = -32.7

